Entry source: patent US20130165396A1

- Tested on: LDL isolated from human plasma
- testDetails: TBARS assay, AAPH-induced LDL oxidation
- Type: biochemical
- testSettings: 10 mg L^−1
Marks after values point to notes of the source that are not given here.
Listed here are molecules together with their documented Percent inhibition of secondary LDL oxidation products, AAPH induction.

Some molecules with known Percent inhibition of secondary LDL oxidation products, AAPH induction results, for comparison:
{"molecule": "O=c1c(O)c(-c2ccc(O)c(O)c2)oc2cc(O)cc(O)c12", "endpointResult": "90.20 ± 0.63^a %"}
{"molecule": "C[C@H]1[C@H](C)CC[C@]2(C(=O)O)CC[C@]3(C)C(=CC[C@@H]4[C@@]5(C)CC[C@H](O)C(C)(C)[C@@H]5CC[C@]43C)[C@H]12", "endpointResult": "−16.51 ± 2.32^d %"}
{"molecule": "CC1(C)CC[C@]2(C(=O)O)CC[C@]3(C)C(=CC[C@@H]4[C@@]5(C)CC[C@H](O)C(C)(C)[C@@H]5CC[C@]43C)[C@@H]2C1", "endpointResult": "31.90 ± 0.95^ab %"}
{"molecule": "O=C(O)[C@H]1O[C@@H](Oc2c(-c3ccc(O)c(O)c3)oc3cc(O)cc(O)c3c2=O)[C@H](O)[C@@H](O)[C@@H]1O", "endpointResult": "80.74 ± 3.27^a %"}
{"molecule": "O=c1c(O[C@@H]2O[C@H](CO)[C@H](O)[C@H](O)[C@H]2O)c(-c2ccc(O)c(O)c2)oc2cc(O)cc(O)c12 [Quercetin-3-O-galactoside]", "endpointResult": "86.65 ± 1.82^a %"}

Note: attention shifts to another entry.
Record C[C@H]1[C@H](C)CC[C@]2(C(=O)O)CC[C@]3(C)C(=CC[C@@H]4[C@@]5(C)C[C@@H](O)[C@H](O)C(C)(C)[C@@H]5CC[C@]43C)[C@H]12 . Reported Percent inhibition of secondary LDL oxidation products, AAPH induction: 5.69 ± 1.46^d %
